Organism: Rattus norvegicus
Assay: Inhibition of rat recombinant geranylgeranyltransferase type I expressed in Escherichia coli assessed as residual enzyme activity for geranylgeranylation of K-Ras4B at 50 uM incubated for 30 mins in presence of [3H]GGPP by scintillation counting assay relative to control
Examples of compounds with documented Activity follow.

TEST SMILES: Cc1cccc([C@H]2C(C(=O)O)=CC[C@@H](c3ccc(Cl)cc3)N2S(=O)(=O)c2ccccc2C)c1
VALUE OBSERVED: 15.6 to 81.1%

TEST SMILES: COc1ccc([C@@H]2C[C@@H](SCc3ccc(Cl)cc3)[C@H](C(=O)O)CN2S(=O)(=O)c2ccccc2C)cc1
VALUE OBSERVED: 23.9 to 30.9%

Exercise: Look at this compound and give its reported Activity. CCCS[C@@H]1C[C@@H](c2ccc(Cl)cc2)N(S(=O)(=O)c2ccc(C)cc2)C[C@H]1C(=O)O
Key: 71%

###

Species on record: Rattus norvegicus
Assay: Inhibition of rat recombinant geranylgeranyltransferase type I expressed in Escherichia coli assessed as residual enzyme activity for geranylgeranylation of K-Ras4B at 50 uM incubated for 30 mins in presence of [3H]GGPP by scintillation counting assay relative to control
RECORDED ENDPOINT: Activity (%)

See these solved cases before continuing.
TEST SMILES: CS(=O)(=O)N1[C@@H](c2cccc(Br)c2)C(C(=O)O)=CC[C@H]1c1ccc(Cl)cc1
RECORDED ENDPOINT: Activity
VALUE OBSERVED: 50.4
//
TEST SMILES: Cc1ccc(S(=O)(=O)N2C[C@@H](C(=O)O)[C@H](Sc3ccccc3)C[C@H]2c2ccccc2)cc1
RECORDED ENDPOINT: Activity
VALUE OBSERVED: 49.3
//
TEST SMILES: Cc1ccc([C@@H]2C[C@@H](Sc3ccccc3)[C@H](C(=O)O)CN2S(=O)(=O)c2ccc(C)cc2)cc1
RECORDED ENDPOINT: Activity
VALUE OBSERVED: 63.2
//
TEST SMILES: Cc1ccc(S(=O)(=O)N2[C@@H](c3ccccc3)C(C(=O)O)=CC[C@H]2c2cccc(Br)c2)cc1
RECORDED ENDPOINT: Activity
VALUE OBSERVED: 35.2
//
TEST SMILES: Cc1ccc(S(=O)(=O)N2C[C@@H](C(=O)O)[C@H](Sc3ccccc3)C[C@H]2c2ccccc2F)cc1
RECORDED ENDPOINT: Activity
VALUE OBSERVED: 51

P: C=CCS[C@H]1[C@@H](C(=O)O)[C@H](c2ccc(Cl)cc2)N(S(=O)(=O)c2ccccc2C)[C@@H]1CCC
Q: CCOc1ccc([C@@H]2C[C@@H](Sc3ccc(C)cc3)[C@H](C(=O)O)CN2S(=O)(=O)c2ccc(C)cc2)cc1
Exercise: Min Activity? P | Q To answer, give the label that identifies your chosen option.
Key: P

###

Examples of compounds with documented Activity follow.
Species: Rattus norvegicus
Experiment: Inhibition of rat recombinant geranylgeranyltransferase type I expressed in Escherichia coli assessed as residual enzyme activity for geranylgeranylation of K-Ras4B at 50 uM incubated for 30 mins in presence of [3H]GGPP by scintillation counting assay relative to control

See these solved cases before continuing.
TEST SMILES: Cc1ccc(S(=O)(=O)N2C[C@@H](C(=O)O)[C@H](SCc3ccc(Cl)cc3)C[C@H]2c2cccc(Br)c2)cc1
VALUE OBSERVED: 7.8 to 8%
--
TEST SMILES: Cc1ccc(S(=O)(=O)N2C[C@@H](C(=O)O)[C@H](SCc3ccccc3)C[C@H]2c2cccc(Cl)c2)cc1
VALUE OBSERVED: 11.5 to 18.1%
--
TEST SMILES: COc1ccc([C@@H]2C[C@@H](SCc3ccc(Cl)cc3)[C@H](C(=O)O)CN2S(=O)(=O)c2ccccc2)cc1
VALUE OBSERVED: 29.2 to 31.9%
--
TEST SMILES: Cc1ccccc1S(=O)(=O)N1[C@@H](c2cccc(Cl)c2)C(C(=O)O)=CC[C@H]1c1ccc(Cl)cc1
VALUE OBSERVED: 14.7 to 41.7%
--
TEST SMILES: COc1ccc([C@@H]2C[C@@H](SCCc3ccccc3)[C@H](C(=O)O)CN2S(=O)(=O)c2ccc(C)cc2)cc1
VALUE OBSERVED: 28.8 to 29.9%
--
TEST SMILES: Cc1ccc(S(=O)(=O)N2C[C@@H](C(=O)O)[C@H](SCc3ccc(Cl)cc3)C[C@H]2c2cccc(Cl)c2)cc1
VALUE OBSERVED: 11.9 to 13.5%

Below: the item to evaluate.
Exercise: Look at this compound and give its reported Activity. COc1ccc([C@@H]2C[C@@H](SCC(C)C)[C@H](C(=O)O)CN2S(=O)(=O)c2ccccc2C)cc1
Key: 79.7%

###

Examples of molecules with documented Activity follow.
Species on record: Rattus norvegicus
Test: Inhibition of rat recombinant geranylgeranyltransferase type I expressed in Escherichia coli assessed as residual enzyme activity for geranylgeranylation of K-Ras4B at 50 uM incubated for 30 mins in presence of [3H]GGPP by scintillation counting assay relative to control

See these solved cases before continuing.
TEST SMILES: Cc1ccccc1S(=O)(=O)N1[C@@H](c2ccc(F)cc2)C(C(=O)O)=CC[C@H]1c1ccc(Cl)cc1
Activity: 15.6 to 28.8%

TEST SMILES: COc1ccc([C@@H]2C[C@@H](SCCc3ccccc3)[C@H](C(=O)O)CN2S(=O)(=O)c2ccccc2)cc1
Activity: 24.1 to 28.3%

TEST SMILES: CCCCS[C@@H]1C[C@@H](c2cccc(Cl)c2)N(S(=O)(=O)c2ccc(C)cc2)C[C@H]1C(=O)O
Activity: 8.5 to 16.7%

Exercise: Look at this molecule and give its reported Activity. C=CCS[C@@H]1C[C@@H](c2cccc(Br)c2)N(S(=O)(=O)c2ccc(C)cc2)C[C@H]1C(=O)O
Key: 29.2 to 83.6%

Exercise: Again, but for Cc1ccccc1S(=O)(=O)N1C[C@@H](C(=O)O)[C@H](SCc2ccc(Cl)cc2)C[C@H]1c1ccc(Cl)cc1
Key: 21.3 to 24.5%

Exercise: Again, but for Cc1ccc(S(=O)(=O)N2C[C@@H](C(=O)O)[C@H](SCCc3ccccc3)C[C@H]2c2ccc3c(c2)OCO3)cc1
Key: 6.5 to 9.2%

Exercise: Again, but for CCCCCS[C@@H]1C[C@@H](c2cccc(Br)c2)N(S(=O)(=O)c2ccc(C)cc2)C[C@H]1C(=O)O
Key: 28.5 to 85.1%

###

Species on record: Rattus norvegicus
Assay: Inhibition of rat recombinant geranylgeranyltransferase type I expressed in Escherichia coli assessed as residual enzyme activity for geranylgeranylation of K-Ras4B at 50 uM incubated for 30 mins in presence of [3H]GGPP by scintillation counting assay relative to control
Examples of compounds with documented Activity follow.

COMPOUND: CCCCS[C@@H]1C[C@@H](c2cccc(Br)c2)N(S(=O)(=O)c2ccc(C)cc2)C[C@H]1C(=O)O
Activity: 5.9 to 9%
--
COMPOUND: Cc1ccccc1S(=O)(=O)N1C[C@@H](C(=O)O)[C@H](SCc2ccccc2)C[C@H]1c1ccc(Cl)cc1
Activity: 8.7 to 12%
--
COMPOUND: Cc1ccc(S(=O)(=O)N2C[C@@H](C(=O)O)[C@H](SCCc3ccccc3)C[C@H]2c2cccc(Cl)c2)cc1
Activity: 4.8 to 9.2%
--
COMPOUND: Cc1ccc(S(=O)(=O)N2C(c3ccc(Cl)c(Cl)c3)CC=C(C(=O)O)C2c2cccc(Cl)c2)cc1 (stereo not given)
Activity: 10.7 to 26%

Below: the item to evaluate.
Exercise: Look at this compound and give its reported Activity. Cc1ccc(S(=O)(=O)N2[C@@H](c3cccc(C)c3)C(C(=O)O)=CC[C@H]2c2cccc(Br)c2)cc1
Key: 16.1 to 31.9%

###

Organism: Rattus norvegicus
Assay: Inhibition of rat recombinant geranylgeranyltransferase type I expressed in Escherichia coli assessed as residual enzyme activity for geranylgeranylation of K-Ras4B at 50 uM incubated for 30 mins in presence of [3H]GGPP by scintillation counting assay relative to control
RECORDED ENDPOINT: Activity (%)

TEST SMILES: COc1ccc([C@@H]2C[C@@H](Sc3ccc(C)cc3)[C@H](C(=O)O)CN2S(=O)(=O)c2ccccc2)cc1
U: %
Activity: 84.8
--
TEST SMILES: Cc1ccccc1S(=O)(=O)N1[C@@H](c2ccc(Br)cc2)C(C(=O)O)=CC[C@H]1c1ccc(Cl)cc1
U: %
Activity: 86.6

###

Organism: Rattus norvegicus
Assay: Inhibition of rat recombinant geranylgeranyltransferase type I expressed in Escherichia coli assessed as residual enzyme activity for geranylgeranylation of K-Ras4B at 50 uM incubated for 30 mins in presence of [3H]GGPP by scintillation counting assay relative to control
RECORDED ENDPOINT: Activity (%)

TEST SMILES: COc1ccc([C@@H]2CC=C(C(=O)O)[C@H](c3ccc(C(C)(C)C)cc3)N2S(=O)(=O)c2ccccc2)cc1
RECORDED ENDPOINT: Activity
VALUE OBSERVED: 82.2
--
TEST SMILES: Cc1ccc(S(=O)(=O)N2[C@@H](c3ccc(C(C)(C)C)cc3)C(C(=O)O)=CC[C@H]2c2cccc(Br)c2)cc1
RECORDED ENDPOINT: Activity
VALUE OBSERVED: 82.8
--
TEST SMILES: Cc1ccc(S(=O)(=O)N2[C@@H](c3ccc(Br)cc3)C(C(=O)O)=CC[C@H]2c2ccccc2)cc1
RECORDED ENDPOINT: Activity
VALUE OBSERVED: 74.6
--
TEST SMILES: Cc1ccc(S(=O)(=O)N2[C@@H](c3ccc(Cl)cc3)C(C(=O)O)=CC[C@H]2c2cccc(F)c2)cc1
RECORDED ENDPOINT: Activity
VALUE OBSERVED: 63.5
--
TEST SMILES: Cc1ccc([C@H]2C(C(=O)O)=CC[C@@H](c3cccc(Br)c3)N2S(=O)(=O)c2ccc(C)cc2)cc1
RECORDED ENDPOINT: Activity
VALUE OBSERVED: 67.4
--
TEST SMILES: Cc1ccc([C@@H]2CC=C(C(=O)O)[C@H](c3cccc(C)c3)N2S(=O)(=O)c2ccccc2C)cc1
RECORDED ENDPOINT: Activity
VALUE OBSERVED: 53.4
--
TEST SMILES: Cc1ccc([C@@H]2C[C@@H](SCCC(C)C)[C@H](C(=O)O)CN2S(=O)(=O)c2ccc(Cl)cc2)cc1
RECORDED ENDPOINT: Activity
VALUE OBSERVED: 77.6
--
TEST SMILES: Cc1ccc([C@@H]2CC=C(C(=O)O)[C@H](c3ccc(F)cc3)N2S(=O)(=O)c2ccc(C)cc2)cc1
RECORDED ENDPOINT: Activity
VALUE OBSERVED: 67.7
